- Test system: Staphylococcus aureus
- ASSAY_EXPLANATION: Antibacterial activity against methicillin-sensitive Staphylococcus aureus ATCC 29213 after 18 to 24 hrs by two-fold serial dilution method
- Assay type: functional
OBSERVED_PROPERTY: MIC90 (µg/mL)
Numbers only here, please. The scale is µg/mL.

Take a look at these entries with their results.
COMPOUND_SMILES	MIC90 / µg/mL
O=C(O)c1cn(C2CC2)c2cc(N3CCNCC3)c(F)cc2c1=O	0.25
CCO/N=C1\C(=O)N(CCCN2CCN(c3cc4c(cc3F)c(=O)c(C(=O)OCCCN3C(=O)/C(=N/OCC)c5cc(C)ccc53)cn4C3CC3)CC2)c2ccc(C)cc21	64
CCO/N=C1\C(=O)N(CCCN2CCN(c3cc4c(cc3F)c(=O)c(C(=O)O)cn4C3CC3)CC2)c2ccc(C)cc21	0.125
CO/N=C1\C(=O)N(CCCN2CCN(c3cc4c(cc3F)c(=O)c(C(=O)OCCCN3C(=O)/C(=N/OC)c5cc(C)ccc53)cn4C3CC3)CC2)c2ccc(C)cc21	32

Moving on to the next compound.
Specify MIC90 for `O=C1C(=O)N(CCCN2CCN(c3cc4c(cc3F)c(=O)c(C(=O)O)cn4C3CC3)CC2)c2ccccc21` and stop.
0.25
